# composite z-score per entry
System: Sam68 (KHDRBS1)
protocolDescription: Sam68 small-molecule binders, primary screen, biochemical, small-molecule microarray, 635 nm fluorescence (AID 1125);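 further: score merges 667 nm channel intensity with signal to noise over triplicate slides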
testSettings: small-molecule microarray binding, higher = more signal
measuredAttribute: composite z-score

compound | measuredAttribute | measuredNumber
CC(C)(C)OC(=O)CC[C@]1(C(=O)N2CCCCC2)COC(c2ccc(OCCCO)cc2)=N1 | composite z-score | 1.14
COc1ccc(CCNC(=O)[C@@]2(Cc3ccccc3I)c3ccccc3C(=O)N(Cc3ccccc3Cl)[C@H]2c2ccc(CO)cc2)cc1 | composite z-score | 0.576
[N-]=[N+]=Nc1ccccc1C[C@]1(C(=O)O)N=C(c2ccc(OCCCO)cc2)O[C@H]1c1ccccc1 | composite z-score | 0.822
Cc1ccc(F)cc1S(=O)(=O)N[C@@H]1CCN(Cc2cccc3[nH]ccc23)C1 | composite z-score | 0.289
COc1ccc(C(=O)Nc2cccc(CN3C(=O)[C@]4(O[C@H](CCn5cc([C@H](O)c6ccccc6)nn5)[C@@H]([Si](C)(C)c5ccc(OC)cc5)[C@@H]4C)c4ccccc43)c2)cc1 | composite z-score | 0.962
CC(C)C[C@@H]1NC(=O)[C@@]23C(=O)N[C@@H](Cc4ccccc4)C2[C@H](C)[C@@]2(C)O[C@H]2C3/C=C/C/C=C\CNC(=O)[C@@H](C)NC1=O (stereo partly specified) | composite z-score | -0.604
CC(C)C(=C=CC[C@@H](O)c1cccc(OCCO)c1)C[C@@H](O)c1ccccn1 | composite z-score | -0.228
O=C1C2C=CC(C(O)c3cc(C(F)(F)F)cc(C(F)(F)F)c3)N(Nc3ccccc3F)C2C(=O)N1c1ccccc1 (stereo unspecified) | composite z-score | 1.01
COCCOC(=O)N1C(=O)[C@@]2(c3cc(C#CCNC(N)=O)ccc31)[C@H](c1ccc(O)cc1)N1[C@H](c3ccccc3)[C@H](c3ccccc3)OC(=O)[C@H]1[C@@H]2C(=O)N1CCN(c2ncccn2)CC1 | composite z-score | 1.27
C[C@]1(C(=O)NCC(F)(F)F)c2ccccc2C(=O)N(Cc2ccccc2)[C@H]1c1ccc(CO)cc1 | composite z-score | -1.22
C=C(C(=O)CC[C@H](OC(=O)c1ccccc1-c1ccccc1C(=O)O)c1ccccc1OCCO)C(C)C | composite z-score | 0.974
CCOC(=O)C=Cc1cc(F)ccc1O | composite z-score | 0.161
CCCC=C(CCC)[C@@H](NC(=O)CCc1ccccc1)c1ccc(C(F)(F)F)cc1 | composite z-score | 1.27
COc1ccc(C#Cc2ccc3c(c2)[C@]2(C(=O)N3)[C@H](c3ccc(OCCO)cc3)N3[C@H](c4ccccc4)[C@H](c4ccccc4)OC(=O)[C@H]3[C@@H]2C(=O)N2CCc3cc(OC)c(OC)cc3C2)cc1 | composite z-score | 1.12
C=CC1c2cc(O)c(OC)cc2CCN1Cc1ccc([N+](=O)[O-])o1 (stereo unspecified) | composite z-score | 0.358
COC(=O)[C@@]1(Cc2ccccc2CN=[N+]=[N-])N=C(c2ccc(OCCCO)cc2)O[C@H]1c1ccccc1CN=[N+]=[N-] | composite z-score | -0.63
